EXPERIMENTAL_SYSTEM: HLA-A*0201 (HLA-A2) peptide complexes (Homo sapiens, UniProt P04439, D140Y/D185E/D98H/E176V/E277Q/G131W/G231S/I119V/I121R/I166T/I218V/L300P/L318F/N151K/N90K/P208A/P217A/Q86G/Q94H/R138H/R169H/T345S)
Construct: endogenous in cells; host or cells: JY B-lymphoblastoid line; primary CLL, MCL, AML, ALL samples; healthy splenic T and B cells
MEASUREMENT_PROTOCOL: HLA-A*0201 phosphopeptides associated with leukemia samples (isolation of HLA-associated peptides)
RUN_PARAMETERS: chronic lymphocytic leukemia sample CLL1

SUBSTANCE	Copies/cell class, CLL1
457 (RTFSPTYGL; SITE (1)..(9): One or more of the listed amino acids can be phosphorylated as set forth in the Tables; listed as Homo sapiens) [compound 457]	0
459 (RVASPTSGV; SITE (1)..(109: One or more of the listed amino acids can be phosphorylated as set forth in the Tables; listed as Homo sapiens) [compound 459]	1 (1 indicates <1 copy/cell)
436 (KAKSPAPGL; SITE (1)..(9): One or more of the listed amino acids can be phosphorylated as set forth in the Tables; listed as Homo sapiens) [compound 436]	0
444 (KMDSFLDMQL; SITE (1)..(10): One or more of the listed amino acids can be phosphorylated as set forth in the Tables; listed as Homo sapiens) [compound 444]	0
440 (KLIDRTESL; SITE (1)..(9): One or more of the listed amino acids can be phosphorylated as set forth in the Tables; listed as Homo sapiens) [compound 440]	2 (2 indicates 1-5 copies/cell)

---

EXPERIMENTAL_SYSTEM: HLA-A*0201 (HLA-A2) peptide complexes (Homo sapiens, UniProt P04439, D140Y/D185E/D98H/E176V/E277Q/G131W/G231S/I119V/I121R/I166T/I218V/L300P/L318F/N151K/N90K/P208A/P217A/Q86G/Q94H/R138H/R169H/T345S)
Construct: endogenous in cells; host or cells: JY B-lymphoblastoid line; primary CLL, MCL, AML, ALL samples; healthy splenic T and B cells
MEASUREMENT_PROTOCOL: HLA-A*0201 phosphopeptides associated with leukemia samples (isolation of HLA-associated peptides)
RUN_PARAMETERS: CLL2

SUBSTANCE	Copies/cell class, CLL2
464 (VMIGSPKKV; SITE (1)..(9): One or more of the listed amino acids can be phosphorylated as set forth in the Tables; listed as Homo sapiens) [compound 464]	0

---

substances and their reported Copies/cell class, JY
EXPERIMENTAL_SYSTEM: HLA-B*0702 (HLA-B7) peptide complexes (Homo sapiens)
Construct: endogenous in cells; host or cells: JY B-lymphoblastoid line; primary ALL, CLL, HCL, AML samples; bone marrow; healthy B and T cells
MEASUREMENT_PROTOCOL: HLA-B*0702 phosphopeptides associated with leukemia samples (isolation of HLA-associated peptides)
RUN_PARAMETERS: JY
Non-standard residues stand in square brackets, D forms with d. No end group written: not given here. pS = N[C@@H](COP(=O)(O)O)C(=O)O
READOUT_LABEL: Copies/cell class, JY

> print(dat)
                                  substance          readout.label                                  val
1  319 (RPN[pS]PSPTAL; listed as Homo sapiens) [compound 319]  Copies/cell class, JY  4 (4 indicates >25 copies per cell)
2  388 (TPR[pS]PPLGLI; listed as Homo sapiens) [compound 388]  Copies/cell class, JY  4 (4 indicates >25 copies per cell)
3  288 (KPPYRSH[pS]L; listed as Homo sapiens) [compound 288]  Copies/cell class, JY      2 (2 indicates 1-5 copies/cell)
4  351 (RPY[pS]PPFFSL; listed as Homo sapiens) [compound 351]  Copies/cell class, JY      2 (2 indicates 1-5 copies/cell)
5  308 (RPA[pS]ARAQPGL; listed as Homo sapiens) [compound 308]  Copies/cell class, JY  4 (4 indicates >25 copies per cell)
6  312 (RPD[pS]RLGKTEL; listed as Homo sapiens) [compound 312]  Copies/cell class, JY  4 (4 indicates >25 copies per cell)
